composite z-score for assorted molecules
system: PRMT1 (protein arginine N-methyltransferase 1); assay: PRMT1 binders on small-molecule microarrays, primary screen, biochemical, small-molecule microarray, 635 nm fluorescence (AID 1088); conditions: small-molecule microarray binding, higher = more signal;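 further: binding of Prmt1 protein to compounds spotted on small-molecule microarray slides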
# respond with the number and nothing more

Consider the reported composite z-score for these molecules:
[[record]]
molecule = "COc1cccc([C@H]2Oc3ccc(OC)cc3C(=NO[C@@H]3O[C@H](COC(C)=O)[C@@H](OC(C)=O)[C@H](OC(C)=O)[C@H]3OC(C)=O)[C@@H]2O)c1"
experimental_value = 0.102

[[record]]
molecule = "COc1cccc([C@H]2Oc3ccc(OC)cc3C(=NOC[C@@H](O)[C@H]3O[C@@H]4OC(C)(C)O[C@@H]4[C@H]3O)[C@@H]2O)c1"
experimental_value = 0.775

[[record]]
molecule = "CCOC(=O)[C@H](Cc1ccccc1)NC(=O)CCC1CC(OC(=O)NCc2cccc3ccccc23)CC2(CCCC(COC(=O)NCCC(C)C)O2)O1 (some centres not stated)"
experimental_value = -0.923

[[record]]
molecule = "CCOC(=O)[C@H](CC(C)C)NC(=O)CCC1CC(OC(=O)NCc2ccc3c(c2)OCO3)CC2(CCCC(COC(=O)NCC3CCCCC3)O2)O1 (some centres not stated)"
experimental_value = 1.24

[[record]]
molecule = "CCOC(=O)[C@H](Cc1ccccc1)NC(=O)CCC1CC(OC(=O)NCc2ccc3c(c2)OCO3)CC2(CCCC(COC(=O)NCCC(C)C)O2)O1 (some centres not stated)"
experimental_value = 1.54


Suppose we examine the molecule COC(=O)[C@@H]1CC[C@H](C)[C@@H](c2ccc(C)cc2)N1C(=O)c1ccc(C=NO[C@@H]2O[C@H](COC(C)=O)[C@@H](OC(C)=O)[C@H](OC(C)=O)[C@H]2OC(C)=O)cc1 ; what composite z-score value has been reported?
1.43

Suppose we examine the molecule CCN1C(=O)[C@H]2[C@H]3[C@H](O)[C@H](O)CC(=O)[C@H]3CC[C@H]2C1=O ; what composite z-score value has been reported?
0.288

Suppose we examine the molecule CC(=O)OC[C@H]1OC(ON=CC[C@@H]2C=C[C@H](OC(C)=O)[C@@H](COC(C)=O)O2)[C@H](OC(C)=O)[C@@H](OC(C)=O)[C@@H]1OC(C)=O (some centres not stated) ; what composite z-score value has been reported?
1.4

Suppose we examine the molecule COC(=O)CC=C[C@@H](C)[C@@H](C=NOCC[C@@H]1C=C[C@H](OC(C)=O)[C@@H](COC(C)=O)O1)NS(=O)(=O)c1ccc(C)cc1 ; what composite z-score value has been reported?
0.477

Suppose we examine the molecule CC(CCN1CCc2nc(-c3ccccc3)c(-c3ccccc3)cc2C1)=NOC[C@@H](O)[C@H]1O[C@@H]2OC(C)(C)O[C@@H]2[C@H]1O ; what composite z-score value has been reported?
1.53

###

target: Follistatin (Homo sapiens); assay: follistatin binders on small-molecule microarrays, primary screen, biochemical, small-molecule microarray, 635/667 nm fluorescence (AID 1132); settings: FST binding, 635 nm fluorescence, higher = more signal
PROPERTY_MEASURED: composite z-score
# respond with the number and nothing more

[[record]]
compound = "CCOC(=O)[C@H](Cc1ccccc1)NC(=O)CCC1CC(OC(=O)NCc2cccc3ccccc23)CC2(CCCC(COC(=O)NCc3cccc(C(F)(F)F)c3)O2)O1 (stereo not given in full)"
experimental_system = "Follistatin (Homo sapiens)"
property_measured = "composite z-score"
experimental_value = -0.0637


Suppose we examine the compound COC(=O)[C@@H]1CC[C@H](C)[C@@H](c2ccc(C)cc2)N1C(=O)c1ccc(C=NO[C@@H](C)c2cn([C@H](CO)Cc3ccccc3)nn2)cc1 ; what composite z-score value has been reported?
0.717

Suppose we examine the compound COC(=O)[C@H]1[C@@H](O)[C@@]2(O)c3ccccc3O[C@@]2(c2ccccc2)[C@@H]1c1ccccc1 ; what composite z-score value has been reported?
0.101

Suppose we examine the compound CON=C(C)CCC(=O)OC[C@H]1O[C@H](c2ccccc2)C=C[C@@H]1Oc1ccc(OC)cc1 ; what composite z-score value has been reported?
0.252

Suppose we examine the compound CC(C)CON=C1C[C@@H](O)[C@@H](O)[C@@H]2[C@@H]3C(=O)N(C4CCCCC4)C(=O)[C@@H]3CC[C@@H]12 ; what composite z-score value has been reported?
0.0116

Suppose we examine the compound COC(=O)CC=C[C@@H](C)[C@@H](C=NO[C@@H](C)c1cc(-c2c(C)cc(C)cc2C)no1)NS(=O)(=O)c1ccc(C)cc1 ; what composite z-score value has been reported?
-1.58

Suppose we examine the compound CC(C)CON=C1[C@H]2CCn3c(=O)n(Cc4cc5c(cc4Cl)OCO5)c(=O)n3[C@H]2[C@H](O)[C@@H]2O[C@H]12 ; what composite z-score value has been reported?
0.768

Suppose we examine the compound CCc1cc2c(nc1CC)CCN(CCC(C)=NO[C@H](C)c1cn([C@H](CO)Cc3ccccc3)nn1)C2 ; what composite z-score value has been reported?
0.672

Suppose we examine the compound C=CC1=C[C@H](O)[C@@H]2O[C@@H]2C12OCCCO2 ; what composite z-score value has been reported?
-0.285

Suppose we examine the compound CO[C@@H]1COC(=O)[C@H](CCSC)NC(=O)CC=C[C@@H](C)COC(=O)[C@H](C)NC(=O)CC=C[C@H]1C ; what composite z-score value has been reported?
0.96

Suppose we examine the compound COc1cc(O)c(C(=O)C=Cc2ccc3c(c2)OCO3)c(OC)c1 ; what composite z-score value has been reported?
0.4

Suppose we examine the compound COc1ccc(O[C@H]2C=C[C@@H](c3ccccc3)O[C@@H]2COC(=O)CCC(C)=NOC[C@@H](O)[C@H]2O[C@@H]3OC(C)(C)O[C@@H]3[C@H]2O)cc1 ; what composite z-score value has been reported?
0.697

Suppose we examine the compound C#CCCCON=C1C[C@@H](O)[C@@H](O)[C@@H]2[C@@H]3C(=O)N(c4ccc(F)cc4F)C(=O)[C@@H]3CC[C@@H]12 ; what composite z-score value has been reported?
0.141

Suppose we examine the compound Cn1c(=O)n2n(c1=O)[C@H]1[C@H](O)[C@@H]3O[C@@H]3C(=O)[C@H]1CC2 ; what composite z-score value has been reported?
0.537

Suppose we examine the compound CCN1C(=O)[C@H]2[C@H]3[C@H](O)[C@H](O)CC(=NOC[C@H]4O[C@H](c5ccccc5)C=C[C@@H]4Oc4ccc(OC)cc4)[C@@H]3CC[C@H]2C1=O ; what composite z-score value has been reported?
0.74

Reference source for all entries: PubChem BioAssay
